Test system: VDR:RXRa (NR concentration 270 nM, RXRa partner concentration 90 nM)
Assay Info: PBM binding z-score (relative to random genomic background probes); higher = stronger binding; sequences stand for … in GC…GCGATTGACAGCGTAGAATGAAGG
Catalogue of sequences with associated PBM binding z-score

Previously resolved entries follow.
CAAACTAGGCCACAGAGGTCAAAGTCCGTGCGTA : 6.29
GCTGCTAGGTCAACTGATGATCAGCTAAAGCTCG : 1.38

## Task // lookup PBM binding z-score for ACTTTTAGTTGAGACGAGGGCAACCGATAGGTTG
## Result 0.832

## Task Find the recorded PBM binding z-score belonging to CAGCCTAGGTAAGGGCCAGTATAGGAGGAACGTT and report it.
## Result -0.84

## Task Would you mind telling me what PBM binding z-score value was observed for TCAGACAGGTGAAGGTAACCCAGGTACGCAGTCG ?
## Result 0.641

## Task Suppose we examine the sequence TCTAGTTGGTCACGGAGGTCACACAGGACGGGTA ; what PBM binding z-score value has been reported?
## Result 5.94

====

Test system: PPARa:RXRa (NR concentration 270 nM, RXRa partner concentration 90 nM)
Assay Info: PBM binding z-score (relative to random genomic background probes); higher = stronger binding; sequences stand for … in GC…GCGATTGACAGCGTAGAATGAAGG
Threshold check on PBM binding z-score: at or above 5 gives 1.0, strictly below gives 0.0.

Answered examples (5):
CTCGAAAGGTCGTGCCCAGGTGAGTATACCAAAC : 0.0
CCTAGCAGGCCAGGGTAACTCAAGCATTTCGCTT : 0.0
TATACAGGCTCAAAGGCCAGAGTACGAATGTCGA : 0.0
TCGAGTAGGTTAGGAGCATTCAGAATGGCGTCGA : 0.0
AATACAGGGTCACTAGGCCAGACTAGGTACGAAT : 1.0

From here, focus on the item given below.
## Task Is PBM binding z-score for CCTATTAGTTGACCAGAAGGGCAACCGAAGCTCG at or above 5?
## Result 0.0

====

Some sequences, each annotated with its measured PBM binding z-score.
Test system: PPARg:RXRa (NR concentration 180 nM, RXRa partner concentration 90 nM)
Assay Info: PBM binding z-score (relative to random genomic background probes); higher = stronger binding; sequences stand for … in GC…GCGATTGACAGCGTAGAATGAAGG
Lab note: write the figure by itself, no unit.

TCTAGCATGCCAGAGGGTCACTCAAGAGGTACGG : 1.02

## Task Consider the sequence shown here: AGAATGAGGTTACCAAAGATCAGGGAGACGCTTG What is its recorded PBM binding z-score?
## Result 2.8

====

System: LXRb:RXRa (NR concentration 270 nM, RXRa partner concentration 90 nM)
Assay Info: PBM binding z-score (relative to random genomic background probes); higher = stronger binding; sequences stand for … in GC…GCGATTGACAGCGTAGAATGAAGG
Measured Attribute: PBM binding z-score

Solved entries:
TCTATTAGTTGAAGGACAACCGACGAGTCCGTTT : 0.67
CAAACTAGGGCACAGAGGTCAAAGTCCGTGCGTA : 4.88
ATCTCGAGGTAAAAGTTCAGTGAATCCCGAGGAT : 1.28
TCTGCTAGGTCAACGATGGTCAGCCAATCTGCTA : 1.57
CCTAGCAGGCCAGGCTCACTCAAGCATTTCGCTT : -0.706

## Task Find the recorded PBM binding z-score belonging to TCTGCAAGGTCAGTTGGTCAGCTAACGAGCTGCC and report it.
## Result 2.09

====

System: THRa:RXRa (NR concentration 90 nM, RXRa partner concentration 90 nM)
Assay Info: PBM binding z-score (relative to random genomic background probes); higher = stronger binding; sequences stand for … in GC…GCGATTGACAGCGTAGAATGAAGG
Rule: 1.0 for PBM binding z-score not less than 3, 0.0 for anything less.

These recorded examples may help you get a feel for the data.
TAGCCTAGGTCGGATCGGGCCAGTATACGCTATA : 0.0
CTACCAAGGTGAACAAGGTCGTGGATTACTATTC : 1.0
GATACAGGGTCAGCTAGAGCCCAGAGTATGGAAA : 0.0

## Task Does the reported PBM binding z-score for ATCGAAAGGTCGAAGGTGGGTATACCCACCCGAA fall at or above the 3 mark?
## Result 0.0

====

Test system: VDR homodimer (NR concentration 270 nM)
Assay Info: PBM binding z-score (relative to random genomic background probes); higher = stronger binding; sequences stand for … in GC…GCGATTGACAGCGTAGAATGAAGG
Measured Attribute: PBM binding z-score
Could you respond with only the numeric value?

Worked set:
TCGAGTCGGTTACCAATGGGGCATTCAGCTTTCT : -0.105
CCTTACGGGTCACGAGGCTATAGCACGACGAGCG : 0.849
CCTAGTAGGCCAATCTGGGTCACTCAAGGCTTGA : -0.107
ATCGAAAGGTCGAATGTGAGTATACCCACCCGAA : 1
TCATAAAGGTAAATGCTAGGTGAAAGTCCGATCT : 0.333
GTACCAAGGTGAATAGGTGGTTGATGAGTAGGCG : -0.0991
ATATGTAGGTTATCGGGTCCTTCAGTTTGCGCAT : 1.51
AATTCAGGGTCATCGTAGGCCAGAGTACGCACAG : 4.01
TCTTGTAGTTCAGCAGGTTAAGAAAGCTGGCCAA : 0.942
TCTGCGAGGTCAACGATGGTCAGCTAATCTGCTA : 3.6

## Task Find PBM binding z-score (VDR homodimer (NR concentration 270 nM)) for the entry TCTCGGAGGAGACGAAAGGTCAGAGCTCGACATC
## Result 0.0625

## Task Lab request: please report PBM binding z-score under test system VDR homodimer (NR concentration 270 nM) for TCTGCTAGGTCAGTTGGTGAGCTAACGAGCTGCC
## Result -0.739

## Task Reported PBM binding z-score for VDR homodimer (NR concentration 270 nM), given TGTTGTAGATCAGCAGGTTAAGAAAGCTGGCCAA ?
## Result -0.583

====

Quick reference: PBM binding z-score of the listed items.
Tested on: RXRa DBDmut IVT, anti-RXR (DBD mutation: RXRa K156A/R161A, NR concentration 90 nM)
Assay Info: PBM binding z-score (relative to random genomic background probes); higher = stronger binding; sequences stand for … in GC…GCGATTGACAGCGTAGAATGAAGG

Guide cases for PBM binding z-score, answers given:
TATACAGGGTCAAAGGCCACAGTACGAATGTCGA : 3.08
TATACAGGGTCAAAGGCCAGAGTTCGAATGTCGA : 3.27
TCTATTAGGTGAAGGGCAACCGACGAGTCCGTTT : 1.57

## Task # get_value(readout='PBM binding z-score', item= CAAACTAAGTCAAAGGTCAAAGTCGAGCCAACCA )
## Result 2.2

## Task What value of PBM binding z-score has been reported for the following sequence? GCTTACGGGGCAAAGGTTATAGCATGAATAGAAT
## Result 1.11

## Task Sample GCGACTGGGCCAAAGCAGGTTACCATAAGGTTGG — what was its PBM binding z-score?
## Result -0.818

## Task Consider the sequence shown here: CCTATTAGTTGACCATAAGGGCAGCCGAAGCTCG What is its recorded PBM binding z-score?
## Result 0.252

## Task For the sequence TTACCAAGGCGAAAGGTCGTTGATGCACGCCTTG , what PBM binding z-score is on record?
## Result 0.253

====

Each entry below carries its reported PBM binding z-score.
System: PPARg:RXRa 270nM:90nM, anti-RXR (NR concentration 270 nM, RXRa partner concentration 90 nM)
Assay Info: PBM binding z-score (relative to random genomic background probes); higher = stronger binding; sequences stand for … in GC…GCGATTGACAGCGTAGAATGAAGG
Lab note: record just the number, no unit beside it.

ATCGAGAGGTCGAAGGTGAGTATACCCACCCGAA : 3.99
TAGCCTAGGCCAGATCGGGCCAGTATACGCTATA : -1.24
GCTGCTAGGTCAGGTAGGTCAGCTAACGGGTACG : 2.19

## Task Returns the measured PBM binding z-score for the input sequence. Input: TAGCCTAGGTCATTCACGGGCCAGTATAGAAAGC
## Result 2.19

## Task // PBM binding z-score lookup, key: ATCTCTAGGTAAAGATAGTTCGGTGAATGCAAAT
## Result 0.307

## Task Look up PBM binding z-score: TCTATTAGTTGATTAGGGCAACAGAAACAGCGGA
## Result 1.96

====

System: VDR:RXRa (NR concentration 270 nM, RXRa partner concentration 90 nM)
Assay Info: PBM binding z-score (relative to random genomic background probes); higher = stronger binding; sequences stand for … in GC…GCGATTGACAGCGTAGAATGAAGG
Class boundaries, taken from values of PBM binding z-score, are as follows: band 1 = under 0.3, band 2 = from 0.3 up to 2, band 3 = 2 and over

Consider the following illustrative entries.
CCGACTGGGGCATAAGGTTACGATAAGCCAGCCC : band 2
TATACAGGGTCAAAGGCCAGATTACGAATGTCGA : band 3
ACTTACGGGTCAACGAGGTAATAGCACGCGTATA : band 3
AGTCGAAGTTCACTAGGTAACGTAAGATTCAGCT : band 3
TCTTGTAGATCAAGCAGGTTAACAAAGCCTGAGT : band 2

## Task Input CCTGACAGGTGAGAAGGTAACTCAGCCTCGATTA ; output its category
## Result band 1

## Task Which band does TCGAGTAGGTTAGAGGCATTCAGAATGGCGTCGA fall in?
## Result band 1

## Task Assign a bin to TAGCCTAGGTCATGGGCCAGTATTCCACGCGAAC
## Result band 3

## Task GET /class?item= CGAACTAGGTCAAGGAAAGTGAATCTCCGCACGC
## Result band 2

## Task Determine which band this sequence sits in: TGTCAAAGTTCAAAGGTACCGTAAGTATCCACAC
## Result band 3

## Task Could you tell me which band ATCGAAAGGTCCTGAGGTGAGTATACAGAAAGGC belongs to?
## Result band 1
